Measured raw competing-Ab binding signal of individual entries
targetOrSystem: T1, human Sdc2 (human, UniProt P34741 19-144, limits assumed)
T1 construct: Antigen of the Octet tandem binning, loaded on biosensors at 100 nM; also called huSdc2; hSdc2
T1 sequence (P34741 19-144 limits assumed): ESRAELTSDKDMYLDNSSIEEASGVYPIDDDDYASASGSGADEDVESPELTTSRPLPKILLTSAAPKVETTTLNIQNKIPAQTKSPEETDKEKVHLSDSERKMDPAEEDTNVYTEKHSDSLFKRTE
assayDetails: Octet tandem binning; Buffer in place of a saturating Ab
Form field (numeric): enter value without unit.

Consider the worked cases shown below.
Problem: Report raw competing-Ab binding signal for R3-P3-E09 (antibody, human IgG1, kappa, V domains shown, human IgG1 kappa from the phage campaign) VH: EVQLVETGGGVVQPGRSLTLSCGASEFTFSNYAMHWVRQAPGKGLEWVAVISYDGTKKYYGDSVKGRFTISRENIKNTLYLQMNSLRSEDTAVYYCARDVGKGVTATGTFDIWGQGTMVTVSS VL: AIRMTQSPSSLSASVGDRVTITCRASQGIGSYLAWFQQKPGEAPKSLIIDATRLKSGVPSRFSGSGSGTEFALTISSLRPEDFATYYCQQYNVSPLTFGGGTKVEIKR please.
Result: 0.285

Problem: Next: R3-P3-C11 (antibody, human IgG1, kappa, V domains shown, human IgG1 kappa from the phage campaign) VH: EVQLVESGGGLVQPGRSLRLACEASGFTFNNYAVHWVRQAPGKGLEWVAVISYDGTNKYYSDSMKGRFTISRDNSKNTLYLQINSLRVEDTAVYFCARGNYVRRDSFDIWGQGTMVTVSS VL: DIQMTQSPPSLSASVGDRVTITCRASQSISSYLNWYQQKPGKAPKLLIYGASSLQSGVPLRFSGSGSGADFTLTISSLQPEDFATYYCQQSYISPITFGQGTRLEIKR
Result: 0.523

Problem: Next: 6-N03-A (antibody, mouse IgG1, kappa, V domains shown) VH: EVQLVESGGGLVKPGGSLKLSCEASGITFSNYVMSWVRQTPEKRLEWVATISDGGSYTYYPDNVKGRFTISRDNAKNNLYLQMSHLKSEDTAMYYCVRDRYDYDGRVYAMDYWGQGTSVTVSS VL: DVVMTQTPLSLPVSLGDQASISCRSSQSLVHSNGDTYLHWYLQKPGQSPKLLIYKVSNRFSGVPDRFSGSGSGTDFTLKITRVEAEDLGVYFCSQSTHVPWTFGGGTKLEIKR
Result: 0.477

Continue with the binder presented below.
Problem: Report raw competing-Ab binding signal for R4M-P3-A12 (antibody, human IgG1, kappa, V domains shown) VH: EVQLVESGGGVVQPGGSLRLSCAASGFTFSDHYMSWIRQAPGKGLEWVSYLSGSGTSIYYADSVKGRFTISRDNAKKSLYLQMNSLRAEDTAVYYCARVGPAAGNAFDIWGQGTMVTVSS VL: QSVLTQPPSASGTPGQRVTISCSGSSSNIGSNYVYWYQQLPGTAPKLLIYRNNQRPSGVPDRFSGSKSGTSASLAITGLQAEDEADYYCQSYDSSLSGVVFGGGTKLTVLR please.
Result: 0.0926
